- system: HLA-B*08:01
- test-name: IEDB peptide-MHC binding, purified MHC/direct/fluorescence; filed as Kd, often an IC50 or EC50 that approximates it; bounds were set here for any values at or beyond the usual limits of such assays
- measurement-parameters: source organism: Brucella suis 1330
pKd: −log10 of the molar value.
experimental-endpoint: pKd

# value lookup — system HLA-B*08:01, readout pKd, item RMIESRMSK
≤ 4.70

----------
- system: HLA-A*02:03
- test-name: IEDB peptide-MHC binding, purified MHC/competitive/fluorescence; filed as Kd, often an IC50 or EC50 that approximates it; bounds were set here for any values at or beyond the usual limits of such assays
- measurement-parameters: source organism: Escherichia coli E110019
pKd: −log10 of the molar value.
experimental-endpoint: pKd

So what's the measured pKd for this one? RAFWGQVQK
≤ 4.70

Every entry's value here was drawn from the Immune Epitope Database (IEDB).
